experiment.notes: Chemical stability of the compound in aqueous phosphate buffered saline assessed as half life at pH 7.4 in presence of 4 mM glutathione
Type: physicochemical
condition.label: gsh
// reported t1/2 per item
quantity.measured: t1/2 (min)

> print(dat)
                                chem.smiles  units  observed.measurement
1  CCOC(=O)N1CCCN(/[N+]([O-])=N/Oc2cc(OC)c([N+](=O)[O-])cc2[N+](=O)[O-])CC1    min                  59.6
2  CCOC(=O)N1CCN(/[N+]([O-])=N/Oc2cc(C)c([N+](=O)[O-])cc2[N+](=O)[O-])CC1    min                  71.5
3  CCOC(=O)N1CCCN(/[N+]([O-])=N/Oc2cc(C)c([N+](=O)[O-])cc2[N+](=O)[O-])CC1    min                  25.7
4  CCOC(=O)N1CCN(/[N+]([O-])=N/Oc2cc(OC)c([N+](=O)[O-])cc2[N+](=O)[O-])CC1    min                  38.6
